- targetOrSystem: TSLP, Q969D9
- procedureDetails: Kd (SPR)
Entries annotated with measured pKd
Note on pKd: it is the negative log10 of concentration, concentration in mol/L.

Worked cases, pKd given:
binder	pKd
unnamed (protein) chain 1: QMQLVESGGGVVQPGRSLRLSCAASGFTFSTFAMHWVRQAPGKGLEWVAVIWYDGSNKHYADSVKGRFTITRDNSKNTLNLQMNSLRAEDTAVYYCARSPRYDYYYEAFDVWGQGTMVTVSS chain 2: SYVLTQPPSVSVAPGQTARITCGGNNLGSKSVHWYQQKPGQAPVLVVYDDSDRPSWIPERFSGSNSGNTATLTISRGEAGDEADYYCQVWDSSSDHVVFGGGTKLTVL	6.43
unnamed (protein) chain 1: QMQLVESGGGVVQPGRSLRLSCAASGFTFSSFAMHWVRQAPGKGLEWVAVIWYDGSNKHYADSVKGRFTITRDNSKNTLNLQMNSLRAEDTAVYYCARAPRYDDYYEAFDVWGQGTMVTVSS chain 2: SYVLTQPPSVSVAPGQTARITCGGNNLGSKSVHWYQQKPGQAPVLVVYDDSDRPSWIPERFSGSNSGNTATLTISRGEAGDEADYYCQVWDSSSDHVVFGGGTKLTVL	6.87
unnamed (protein) chain 1: QMQLVESGGGVVQPGRSLRLSCAASGFTFRTYGMHWVRQAPGKGLEWVAVIWYDGSNKHYADSVKGRFTITRDNSKNTLNLQMNSLRAEDTAVYYCARPPYYYGTTYYFDYWGQGTMVTVSS chain 2: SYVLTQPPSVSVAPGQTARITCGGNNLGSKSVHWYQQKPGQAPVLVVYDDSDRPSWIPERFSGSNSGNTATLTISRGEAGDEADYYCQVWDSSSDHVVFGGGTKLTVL	6.52
unnamed (protein) chain 1: QMQLVESGGGVVQPGRSLRLSCAASGFTFRTYGMHWVRQAPGKGLEWVAVIWYDGSNKHYADSVKGRFTITRDNSKNTLNLQMNSLRAEDTAVYYCARDRFDVASGSSFDFWGQGTMVTVSS chain 2: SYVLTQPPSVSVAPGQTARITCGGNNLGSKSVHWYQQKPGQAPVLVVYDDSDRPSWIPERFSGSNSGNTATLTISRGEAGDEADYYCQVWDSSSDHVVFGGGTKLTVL	6.90
unnamed (protein) chain 1: QMQLVESGGGVVQPGRSLRLSCAASGFTFRTYGMHWVRQAPGKGLEWVAVIWYDGSNKHYADSVKGRFTITRDNSKNTLNLQMNSLRAEDTAVYYCARAPRYDFYYEAFDVWGQGTMVTVSS chain 2: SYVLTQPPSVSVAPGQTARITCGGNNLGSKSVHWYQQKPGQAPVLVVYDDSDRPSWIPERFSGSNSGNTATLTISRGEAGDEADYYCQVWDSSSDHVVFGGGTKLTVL	6.94
unnamed (protein) chain 1: QMQLVESGGGVVQPGRSLRLSCAASGFTFSTFAMHWVRQAPGKGLEWVAVIWYDGSNKHYADSVKGRFTITRDNSKNTLNLQMNSLRAEDTAVYYCARAPRYDDAYEAFDVWGQGTMVTVSS chain 2: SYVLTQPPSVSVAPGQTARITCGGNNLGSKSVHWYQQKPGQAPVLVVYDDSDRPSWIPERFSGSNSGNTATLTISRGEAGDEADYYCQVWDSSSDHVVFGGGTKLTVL	6.41
unnamed (protein) chain 1: QMQLVESGGGVVQPGRSLRLSCAASGFTFRTYGMHWVRQAPGKGLEWVAVIWYDGSNKHYADSVKGRFTITRDNSKNTLNLQMNSLRAEDTAVYYCARAPRYDEYWEAFDVWGQGTMVTVSS chain 2: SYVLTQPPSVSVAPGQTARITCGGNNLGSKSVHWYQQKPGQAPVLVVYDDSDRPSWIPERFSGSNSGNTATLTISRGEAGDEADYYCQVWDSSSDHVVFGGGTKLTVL	7.07
unnamed (protein) chain 1: QMQLVESGGGVVQPGRSLRLSCAASGFTFSTYAMHWVRQAPGKGLEWVAVIWYDGSNKHYADSVKGRFTITRDNSKNTLNLQMNSLRAEDTAVYYCARAPRYYEYWEAFDVWGQGTMVTVSS chain 2: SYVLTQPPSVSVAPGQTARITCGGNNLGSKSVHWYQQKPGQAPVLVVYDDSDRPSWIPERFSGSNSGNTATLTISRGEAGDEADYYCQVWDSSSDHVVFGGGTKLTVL	6.55
unnamed (protein) chain 1: QMQLVESGGGVVQPGRSLRLSCAASGFTFSTFAMHWVRQAPGKGLEWVAVIWYDGSNKHYADSVKGRFTITRDNSKNTLNLQMNSLRAEDTAVYYCARAPRYDYYLEAFDVWGQGTMVTVSS chain 2: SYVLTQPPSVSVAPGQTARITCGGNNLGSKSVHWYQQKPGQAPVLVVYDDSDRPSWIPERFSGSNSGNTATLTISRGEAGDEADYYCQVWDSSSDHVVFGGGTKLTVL	6.28

Next binder, please.
Query string: Name the recorded pKd for unnamed (protein) chain 1: QMQLVESGGGVVQPGRSLRLSCAASGFTFSTFAMHWVRQAPGKGLEWVAVIWYDGSNKHYADSVKGRFTITRDNSKNTLNLQMNSLRAEDTAVYYCARAPRYDERYEAFDVWGQGTMVTVSS chain 2: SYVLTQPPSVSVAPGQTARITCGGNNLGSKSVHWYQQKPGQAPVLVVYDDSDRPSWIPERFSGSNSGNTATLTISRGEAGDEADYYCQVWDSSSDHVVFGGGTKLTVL .
Result string: 6.44

All figures here come from the FLAb antibody collection (doi:10.1101/2023.12.08.570889).
